Assay name: Selectivity index, ratio of CC50 for human MT4 cells to EC50 for HIV-1 3B infected in human MT4 cells
Type: toxicity, cell-based
Setup conditions: read-out: Ratio CC50/EC50
Parameter measured: selectivity ratio

- Smiles repr: "Nc1ccn([C@H]2CC[C@@H](CO)O2)c(=O)n1"
  Val: "> 68"
- Smiles repr: "N#Cc1ccccc1CN1C(=O)N(Cc2cccc(Cl)c2)S(=O)(=O)n2cccc21"
  Val: "> 33"
- Smiles repr: "O=C1N(Cc2cccc(Cl)c2)c2cccn2S(=O)(=O)N1Cc1ccccc1"
  Val: 5
- Smiles repr: "N#CCN1C(=O)N(Cc2cccc(F)c2)S(=O)(=O)n2cccc21"
  Val: 5
- Smiles repr: "N#Cc1ccccc1CN1C(=O)N(Cc2ccccc2)S(=O)(=O)n2cccc21"
  Val: "> 63"
- Smiles repr: "Cc1ccc(CN2C(=O)N(Cc3ccccc3)S(=O)(=O)n3cccc32)cc1"
  Val: "< 1"
- Smiles repr: "O=C1N(Cc2ccccc2Cl)c2cccn2S(=O)(=O)N1Cc1ccccc1"
  Val: 12
- Smiles repr: "O=C1N(Cc2ccc(Cl)cc2Cl)c2cccn2S(=O)(=O)N1Cc1ccccc1"
  Val: "< 1"
- Smiles repr: "N#CCN1C(=O)N(Cc2ccccc2)S(=O)(=O)n2cccc21"
  Val: "< 1"
